- Target Or System: T1, human Y2 receptor (human, UniProt P49146 1-381)
- T1 construct: whole, on cells; used as membrane fraction of hY2R/CHO cells; also called human NPY2R; hY2R
- T1 sequence (looked up): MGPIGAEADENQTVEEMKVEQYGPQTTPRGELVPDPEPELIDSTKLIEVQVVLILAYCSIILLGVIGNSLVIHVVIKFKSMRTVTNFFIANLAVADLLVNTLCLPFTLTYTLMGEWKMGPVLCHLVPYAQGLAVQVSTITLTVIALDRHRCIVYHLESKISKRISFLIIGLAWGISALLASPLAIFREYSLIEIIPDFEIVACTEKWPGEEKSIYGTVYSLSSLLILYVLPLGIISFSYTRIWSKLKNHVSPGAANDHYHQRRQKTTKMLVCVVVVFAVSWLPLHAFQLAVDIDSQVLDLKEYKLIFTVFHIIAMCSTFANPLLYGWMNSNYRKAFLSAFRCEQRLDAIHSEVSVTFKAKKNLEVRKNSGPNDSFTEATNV
- Test Details: RBA: [125I]-PYY displacement, hY2R/CHO membranes
Non-standard residues stand in square brackets, D forms with d. No end group written: not given here. *: point of attachment. 2‑hydroxyethylcarbamoyl = O=C(NCCO)*; tBuAla = CC(C)(C)C[C@H](N)C(=O)O; Cha = N[C@@H](CC1CCCCC1)C(=O)O; 4Amb = NCc1ccc(C(=O)O)cc1; Aib = CC(C)(N)C(=O)O
// reported IC50 Ratio (vs PYY(3-36)) per item
Observable: IC50 Ratio (vs PYY(3-36)) (ratio)

Binder: [4Amb]RAYFNLITRQRY-NH2 (N-terminus assumed; SMILES CC[C@H](C)[C@H](NC(=O)[C@H](CC(C)C)NC(=O)[C@H](CC(N)=O)NC(=O)[C@H](Cc1ccccc1)NC(=O)[C@H](Cc1ccc(O)cc1)NC(=O)[C@H](C)NC(=O)[C@H](CCCNC(=N)N)NC(=O)c1ccc(CN)cc1)C(=O)N[C@H](C(=O)N[C@@H](CCCNC(=N)N)C(=O)N[C@@H](CCC(N)=O)C(=O)N[C@@H](CCCNC(=N)N)C(=O)N[C@@H](Cc1ccc(O)cc1)C(N)=O)[C@@H](C)O, also called compound No. 22) [4-Aminomethylbenzoyl-[Ala26, Phe28, Ile31]-PYY(25-36)]
Observable: IC50 Ratio (vs PYY(3-36))
Reported Measurement: 4.1
--
Binder: Ac-S[dP]RH[Cha][tBuAla]NK[Aib]TRQR[Cha]-NH2 (SMILES CC(=O)N[C@@H](CO)C(=O)N1CCC[C@@H]1C(=O)N[C@@H](CCCNC(=N)N)C(=O)N[C@@H](Cc1c[nH]cn1)C(=O)N[C@@H](CC1CCCCC1)C(=O)N[C@@H](CC(C)(C)C)C(=O)N[C@@H](CC(N)=O)C(=O)N[C@@H](CCCCN)C(=O)NC(C)(C)C(=O)N[C@H](C(=O)N[C@@H](CCCNC(=N)N)C(=O)N[C@@H](CCC(N)=O)C(=O)N[C@@H](CCCNC(=N)N)C(=O)N[C@@H](CC1CCCCC1)C(N)=O)[C@@H](C)O, also called compound No. 136) [Ac-[D-Pro24, Cha27,36, Leu(Me)28, Lys30, Aib31]-PYY(23-36)]
Observable: IC50 Ratio (vs PYY(3-36))
Reported Measurement: 0.57
--
Binder: {2‑hydroxyethylcarbamoyl}-S[dP]RH[Cha][tBuAla]NK[Aib]TRQR[Cha]-NH2 (SMILES C[C@@H](O)[C@H](NC(=O)C(C)(C)NC(=O)[C@H](CCCCN)NC(=O)[C@H](CC(N)=O)NC(=O)[C@H](CC(C)(C)C)NC(=O)[C@H](CC1CCCCC1)NC(=O)[C@H](Cc1c[nH]cn1)NC(=O)[C@H](CCCNC(=N)N)NC(=O)[C@H]1CCCN1C(=O)[C@H](CO)NC(=O)NCCO)C(=O)N[C@@H](CCCNC(=N)N)C(=O)N[C@@H](CCC(N)=O)C(=O)N[C@@H](CCCNC(=N)N)C(=O)N[C@@H](CC1CCCCC1)C(N)=O, also called compound No. 188) [2-Hydroxyethylcarbamoyl-[D-Pro24, Cha27,36, Leu(Me)28, Lys30, Aib31]-PYY(23-36)]
Observable: IC50 Ratio (vs PYY(3-36))
Reported Measurement: 0.6
